System: Bacillus subtilis
Assay: cleaved RNA product abundance (RNA/gDNA barcode ratio) relative to median wild-type variant (ratio to wild type); higher = more accumulation of the downstream cleavage product
Details: experiment (reporter, strain, medium): exp 4a: truncated aprE reporter, strain BJT201 with 2% xylose (RNase J1 expressed); cleavage site: cggR-gapA (positions -7 to +36 mutated)
Recorded cleaved RNA product abundance, one value per entry.
Lab note: jot the number down without any unit.

In the examples that follow, each entry is paired with its recorded cleaved RNA product abundance.
Monomer Sequence | cleaved RNA product abundance
ACAGACGAAGGAGCCGCAAAGATGTTATTAAGGGATGAATATTCCCTCAATATAAATATCTCTCACTTATTTAAA | 0.556
ACAGACGAAGGAGCCGCAAAGAAGTGATTAAGGAATGAATAATCCCTCAATATAAATATCTCTCACTTATTTAAA | 0.115
ACAGACGAAGGAGCCGCAAAGAAGTTATTTAGGGATGACTAATCCCTCAATATAAATATCTCTCACTTATTTAAA | 0.541
ACAGACGAAGGAGCCGCAAATAAGTTATTAAGGGATGAATAATCCCTCAATATAAATGTCTCTCACTTATTTAAA | 0.45
ACAGACGAAGGAGCCGCAAAGAAGTTATTAAGGGACGAATAATCCCTCAATATAAATATCTCTCACTTATTTAAA | 0.697

Qu. Give the measured cleaved RNA product abundance of ACAGACGAAGGAGCCGCAAAGAAGTTATTAAGGGATGAATAATCCCGCAATATAGATATCTCTCACTTATTTAAA .
Ans. 0.279

Qu. Requested read-out: cleaved RNA product abundance. Entry: ACAGACGAAGGAGCCGCAAAGAAGTTATTAAGGAATGAAAAATCCCTCAATATAAATATCTCTCACTTATTTAAA
Ans. 0.137
